Tested on: Key Broadleaf Weed and Crop Species
measurement.notes: Post-Emergent Test II: postemergent herbicidal activity, visual rating after 14 d (Table 7)
Type: in vivo
experimental.conditions: post-emergence, 336 h, lambsquarters (Chenopodium album), 140 g ai/ha, read-out: Visual Growth Reduction (%) 14 Days After Application CHEAL
measured.endpoint: pest or weed control at 140 g/ha

Prompt: For "Nc1c(Cl)c(C(=O)O)nc(-c2cc3c(cc2F)OC(F)(F)O3)c1Cl" , write its pest or weed control at 140 g/ha.
Response: 45 to 59%

Prompt: For the compound "COC(=O)c1nc(-c2ccc3c(c2F)OC(F)(F)O3)c(F)c(N)c1Cl" , report pest or weed control at 140 g/ha.
Response: 95 to 100%

Prompt: Fill in reported pest or weed control at 140 g/ha for this entry: "COC(=O)c1nc(-c2cc3c(cc2F)OC(F)(F)O3)nc(N)c1OC"
Response: 0 to 29%

Prompt: Specify pest or weed control at 140 g/ha for "COc1cc(-c2nc(C(=O)O)c(Cl)c(N)c2F)cc2c1OCO2" and stop.
Response: 75 to 84%

Prompt: Look up pest or weed control at 140 g/ha of "COC(=O)c1nc(-c2cccc3c2OCO3)c(F)c(N)c1Cl" and report it.
Response: 95 to 100%

New cases:
Prompt: Could you please provide reported pest or weed control at 140 g/ha for "Nc1cc(-c2ccc3c(c2Cl)OC(F)(F)O3)nc(C(=O)O)c1Cl" ? Thanks!
Response: 75 to 84%

Prompt: Given "COC(=O)c1nc(-c2ccc(Cl)c3c2OC(F)(F)O3)c(F)c(N)c1Cl" , respond with its pest or weed control at 140 g/ha.
Response: 95 to 100%

Prompt: State its pest or weed control at 140 g/ha: "COc1c(N)nc(-c2ccc3c(c2F)OC(F)(F)O3)nc1C(=O)O"
Response: 95 to 100%

Prompt: Tell me pest or weed control at 140 g/ha reported for "COc1c(C(=O)O)nc(-c2cc3c(cc2F)OC(F)(F)O3)c(F)c1N"
Response: 0 to 29%
